Data credit: PubChem BioAssay (NCI)

System: UACC-62 melanoma
Assay: NCI tumour cell line growth inhibition, 48 h
PROPERTY: TGI

Looking for the measured TGI of `c1ccc(COc2ccc(CC3SCCCS3)cc2)cc1` , can you help? > 100 µM

Looking for the measured TGI of `CCOC(=O)c1cc2cc(N(C(C)=O)C(C)=O)ccc2s1` , can you help? > 100 µM

Looking for the measured TGI of `CCN(CC)CCCN(c1cc(OC)cc2nccnc12)S(=O)(=O)c1ccc(C)cc1` , can you help? > 100 µM

Looking for the measured TGI of `CNc1ccccc1C(=O)N/N=C/C=C/c1ccccc1` , can you help? 32.7 µM

Looking for the measured TGI of CC1=C(/C=C/C(C)=C/C=C/C(C)=C/C(=O)OCC2OC(n3cc(F)c(=O)[nH]c3=O)CC2OC(=O)/C=C(C)/C=C/C=C(C)/C=C/C2=C(C)CCCC2(C)C)C(C)(C)CCC1 (stereo not given) , can you help? > 23.8 µM

---

System: A498 renal
Assay: NCI tumour cell line growth inhibition, 48 h
Answer each item with its documented TGI.

Looking for the measured TGI of CC(=O)OCC1OC(On2ccccc2=S)C(OC(C)=O)C(OC(C)=O)C1OC(C)=O (stereo unspecified) , can you help? > 100 µM

Looking for the measured TGI of N#CC1=C(N)Oc2cc3c(cc2C1c1cccs1)OCO3 (stereo unspecified) , can you help? 10.2 µM

Looking for the measured TGI of Cc1ccc(S(=O)ON2CCC(C(=O)O)(c3ccccc3)CC2)cc1 (stereo unspecified) , can you help? > 100 µM

Looking for the measured TGI of `CC/C(=N\NC(=O)c1cccnc1)c1ccc2c(c1)OCCO2` , can you help? > 100 µM

Looking for the measured TGI of `CC(=O)N=C(N=Nc1c(O)[nH]c2ccc(C)cc12)NC(C)=O` , can you help? > 100 µM

Looking for the measured TGI of `O=C1NC(=O)C(C(=O)C(=O)Nc2ccc(Br)cc2)C(=O)N1` , can you help? > 100 µM

---

Test system: MDA-MB-435
# valid calls are y (active), n (inactive); nothing else

Test call, this molecule: `CCn1c(=O)c(-c2ccn[nH]2)cc2c(C)nc(N)nc21` n

Test call, this molecule: `CCc1ccc(-c2nnc(COc3ccc(-c4nc5ccc(C)cc5[nH]4)cc3OC)o2)cc1` n

Test call, this molecule: `Oc1ccc2ccccc2c1C=NCCCN=Cc1c(O)ccc2ccccc12` n

Test call, this molecule: `O=C(Nc1ccc(Cl)c([N+](=O)[O-])c1)Nc1nc2ccccc2s1` n

Test call, this molecule: `Nc1c(C(=O)Nc2ccccc2)sc2nc3c(cc12)CCCCCC3` y

Test call, this molecule: `O=C(/C=C/c1ccco1)c1ccc(Nc2nc(Nc3ccc(F)cc3)nc(Nc3ccc(Cl)cc3)n2)cc1` n

Test call, this molecule: `Oc1c(CN2CCC(N3CCOCC3)CC2)cc(Cc2cc(CN3CCC(N4CCOCC4)CC3)c(O)c3ncccc23)c2cccnc12` n

Test call, this molecule: `CN(C)/[N+]([O-])=N/Oc1cc(Nc2cccc(C(=O)O)c2)c([N+](=O)[O-])cc1[N+](=O)[O-]` n

Test call, this molecule: `CN(C)CCNC(=O)c1ccc(Nc2nc3ccccc3c3occc23)cc1` n

Test call, this molecule: `OCCN(CCO)N=Nc1ccc(-c2nc3ccccc3[nH]2)cc1` n

Test call, this molecule: `Cc1ccc(Nc2nc(NCCO)c3ccccc3n2)cc1C` n

Test call, this molecule: `CCNC(=O)C[C@@H]1N=C(c2ccc(Cl)cc2)c2cc(OC)ccc2-n2c(C)nnc21` n
